# testedSystem: T1, TNFR2-His (Sino Biological, 10417-H08H, NP_001057.1 Met1-Asp257, with multi-histidine tag expressed on … (human, UniProt P20333 23-257))
# T1 construct: range 1-257; Bought protein; also called recombinant human TNFR2 protein; TNFR2-His antigen; not shown: C-terminal multi-histidine tag
# T1 sequence (looked up): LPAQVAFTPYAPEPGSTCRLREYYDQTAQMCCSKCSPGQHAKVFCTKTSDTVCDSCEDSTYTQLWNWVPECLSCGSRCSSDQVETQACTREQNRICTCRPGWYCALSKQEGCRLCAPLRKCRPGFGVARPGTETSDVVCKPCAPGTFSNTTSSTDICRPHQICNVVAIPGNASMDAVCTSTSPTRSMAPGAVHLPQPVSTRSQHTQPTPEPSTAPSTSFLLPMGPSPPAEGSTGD
# assayNotes: BLI, antibody captured on AHC probe, TNFR2-His in solution
endpointLabel: kon (M⁻¹ s⁻¹)
Answers are plain numbers, in M⁻¹ s⁻¹.

Batch request: kon for each of the following binders.
1. 11G2huVH3 + huVL3(P07273) (antibody, V domains shown, Humanized 11G2) VH: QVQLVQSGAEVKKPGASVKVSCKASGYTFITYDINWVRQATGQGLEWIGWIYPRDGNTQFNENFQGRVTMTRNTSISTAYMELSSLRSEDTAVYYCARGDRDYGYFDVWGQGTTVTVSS VL: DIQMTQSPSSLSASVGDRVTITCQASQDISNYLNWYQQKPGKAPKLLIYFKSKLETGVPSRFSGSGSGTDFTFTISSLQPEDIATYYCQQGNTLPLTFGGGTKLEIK
2. 11G2huVH2 + huVL3(P07272) (antibody, V domains shown, Humanized 11G2) VH: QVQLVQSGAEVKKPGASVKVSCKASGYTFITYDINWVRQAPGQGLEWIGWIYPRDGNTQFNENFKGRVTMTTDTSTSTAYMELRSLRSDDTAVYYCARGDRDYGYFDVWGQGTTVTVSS VL: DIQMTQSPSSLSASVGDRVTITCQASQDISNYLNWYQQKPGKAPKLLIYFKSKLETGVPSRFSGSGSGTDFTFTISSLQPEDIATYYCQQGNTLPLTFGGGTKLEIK
3. 11G2huVH3 + huVL2(P07268) (antibody, V domains shown, Humanized 11G2) VH: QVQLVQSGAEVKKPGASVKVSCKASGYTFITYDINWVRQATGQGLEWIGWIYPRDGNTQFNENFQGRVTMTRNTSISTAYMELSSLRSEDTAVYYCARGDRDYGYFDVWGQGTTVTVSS VL: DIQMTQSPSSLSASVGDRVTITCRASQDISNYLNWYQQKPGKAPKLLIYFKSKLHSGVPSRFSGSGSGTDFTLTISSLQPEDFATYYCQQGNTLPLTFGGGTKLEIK
4. 11G2huVH2 + huVL2(P07267) (antibody, V domains shown, Humanized 11G2) VH: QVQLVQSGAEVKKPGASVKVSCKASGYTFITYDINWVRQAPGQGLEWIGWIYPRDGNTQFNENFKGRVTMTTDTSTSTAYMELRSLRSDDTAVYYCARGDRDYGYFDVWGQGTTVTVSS VL: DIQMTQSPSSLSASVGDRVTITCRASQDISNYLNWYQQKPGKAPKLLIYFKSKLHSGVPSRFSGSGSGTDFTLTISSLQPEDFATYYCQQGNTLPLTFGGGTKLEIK

Outgoing:
1. 249000
2. 276000
3. 302000
4. 280000

Incoming: Which kon is reported for this binder? 11G2huVH5 + huVL1(P07266) (antibody, V domains shown, Humanized 11G2) VH: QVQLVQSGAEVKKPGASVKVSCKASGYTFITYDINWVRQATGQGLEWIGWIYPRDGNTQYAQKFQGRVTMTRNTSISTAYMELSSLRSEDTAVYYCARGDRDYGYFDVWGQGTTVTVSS VL: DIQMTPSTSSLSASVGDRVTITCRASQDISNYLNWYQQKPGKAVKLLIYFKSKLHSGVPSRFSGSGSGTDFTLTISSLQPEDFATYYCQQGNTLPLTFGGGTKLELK
Outgoing: 223000
